# assay target: Na+/K+-ATPase (Homo sapiens)
# Construct: endogenous in cells
# test summary: Non-radioactive rubidium ion uptake assay, HEK-293 cells
# run parameters: read-out: Na+/K+-ATPase Inhibition IC50

- molecule: "CON([C@H]1CC[C@@]2(C)[C@H](CC[C@@H]3[C@@H]2CC[C@]2(C)[C@@H](C4=CC(=O)OC4)CC[C@]32O)C1)[C@@H]1O[C@H](CO)[C@@H](O)[C@H](O)[C@@H]1O [27β, D-mannoside]"
  IC50: "> 200 µM"
- molecule: "CON(C1CCC2(C)C(CCC3C2CCC2(C)C(C4=CC(=O)OC4)CCC32O)C1)C1OCC(O)C(O)C1O [15β, D-lyxoside]"
  IC50: "> 300 µM"
- molecule: "CON([C@H]1CC[C@@]2(C)[C@H](CC[C@@H]3[C@@H]2CC[C@]2(C)[C@@H](C4=CC(=O)OC4)CC[C@]32O)C1)[C@H]1OC[C@H](O)[C@H](O)[C@@H]1O [5β, L-riboside]"
  IC50: "> 300 µM"
- molecule: "CON([C@H]1CC[C@@]2(C)[C@H](CC[C@@H]3[C@@H]2CC[C@]2(C)[C@@H](C4=CC(=O)OC4)CC[C@]32O)C1)[C@H]1OC[C@H](O)[C@@H](O)[C@@H]1O [23β, L-xyloside]"
  IC50: "> 300 µM"
- molecule: "CON(C1CCC2(C)C(CCC3C2CCC2(C)C(C4=CC(=O)OC4)CCC32O)C1)C1OC(CO)C(O)C(O)C1O [40β, D-taloside]"
  IC50: "> 200 µM"
- molecule: "C[C@H]1O[C@@H](O[C@H]2[C@@H](O)C[C@H](O[C@H]3[C@@H](O)C[C@H](O[C@H]4CC[C@@]5(C)[C@H](CC[C@@H]6[C@@H]5CC[C@]5(C)[C@@H](C7=CC(=O)OC7)CC[C@]65O)C4)O[C@@H]3C)O[C@@H]2C)C[C@H](O)[C@@H]1O"
  IC50: "75.4 µM"
